experiment: Antiproliferative activity against human OVCA433 cells after 48 hrs by MTT assay; type: functional, cell-based; conditions: OVCA433, 48 h
pIC50: −log10 of the molar value.
Y means recorded pIC50 is 8 or above; N means it is below 8.

>>> label("Cc1c(Cc2ccc(F)cc2)c(=O)oc2cc(OCCOc3no[n+]([O-])c3S(=O)(=O)c3ccccc3)ccc12")
"Y"
>>> label("COCCOc1no[n+]([O-])c1S(=O)(=O)c1ccccc1")
"N"
>>> label("Cc1c(Cc2ccccc2)c(=O)oc2cc(OCCOc3no[n+]([O-])c3S(=O)(=O)c3ccccc3)ccc12")
"Y"
>>> label("Cc1cc(=O)oc2cc(OCCOc3no[n+]([O-])c3S(=O)(=O)c3ccccc3)ccc12")
"N"
